Tested on: Escherichia coli
experiment.notes: Antibacterial activity against Escherichia coli DH5[alpha] after 24 hr by paper disk diffusion method
Assay type: functional
endpoint.label: MIC
Units required after the number.

Could you tell me which MIC is on file for Nn1c(Sc2ccc(S(=O)(=O)Cl)cc2)nnc1-c1ccccc1 ?
15 µg/mL

# query: MIC of entry Nn1c(Sc2ccc(Cl)cc2)nnc1-c1ccccc1
10 µg/mL

# query: MIC of entry Nn1c(S)nnc1-c1ccccc1
12.5 µg/mL

State the recorded MIC for this entry: Nn1c(Sc2ccc(Br)cc2)nnc1-c1ccccc1
10 µg/mL

Now, please, on to the next molecule.
I have this molecule here, Nn1c(Sc2ccc([N+](=O)[O-])cc2[N+](=O)[O-])nnc1-c1ccccc1 , and I need its recorded MIC.
15 µg/mL

###

Tested on: Escherichia coli
experiment.notes: Antibacterial activity against Escherichia coli DH5[alpha] after 24 hr by paper disk diffusion method
Format: functional
As shown below, each of these compounds has a reported MIC value.
A number alone suffices; assume µg/mL.

Using the record for Nn1c(S)nnc1-c1ccccc1O , report its MIC.
12.5

Quick one: MIC of CO/N=C(\C(=O)N[C@@H]1C(=O)N2C(C(=O)O)=C(CSc3nc(=O)c(O)nn3C)CS[C@H]12)c1csc(N)n1 [CEFTRIAXONE] ?
5

Others:
Name the recorded MIC for CC(=O)Nn1c(S)nnc1-c1ccccc1 .
15

What value of MIC has been reported for the following compound? Nn1c(Sc2ccc(C(Cl)(Cl)Cl)cc2)nnc1-c1ccccc1
5

Values from ChEMBL document CHEMBL3045378
